# Test system: HCT-116
# assayOverview: Growth inhibition of HCT116 cells
# Assay type: functional, cell-based
# conditionSet: Homo sapiens
pIC50: −log10 of the molar value.
attributeMeasured: pIC50

>>> print(df.to_string())
                                testsmiles  attributemeasured  recordedvalue
0  COc1cc2ncc3c(N)nc4c(C)c(N)ccc4c3c2cc1OC              pIC50           5.44

----------
# Tested on: K562
# assayOverview: Growth inhibition of K562 cells
# Format: functional, cell-based
# conditionSet: Homo sapiens
pIC50: −log10 of the molar value.
attributeMeasured: pIC50

In [3]: df
Out[3]:
                                testsmiles  attributemeasured  recordedvalue
0  COc1cc2ncc3c(N)nc4c(C)c(N)ccc4c3c2cc1OC              pIC50           6.32
